- Test system: IGROV1 ovarian
- TEST METHOD NOTES: NCI tumour cell line growth inhibition, 48 h
PROPERTY: TGI

Here is how some molecules turned out for TGI.
>>> recorded_result("O[C@H](CN1CC1)[C@@H](O)CN1CC1")
"33.3 µM"
>>> recorded_result("O=C1OC2C=CC1C1(CCOC1=O)C2 (configuration not stated)")
"> 100 µM"
>>> recorded_result("O=c1[nH]cnc2nc(-c3ccc(N(CCCl)CCCl)cc3)[nH]c12")
"> 100 µM"

Task item: Which TGI reading was recorded for the molecule `Cc1ccc(C)c2c1CCc1cc3ccccc3nc1-2` ?
Reply: > 100 µM

Task item: Look up TGI: `Cc1cc(S(=O)(=O)Nc2nc3cc(-c4ccsc4)sc3c(=O)n2N)c(S)cc1Cl`
Reply: > 100 µM

Task item: Value lookup for TGI; key = `NC(=S)N/N=C\c1nccc2c(C(F)(F)C(F)(F)C(F)(F)F)cccc12`
Reply: 1.93 µM

Task item: // lookup TGI for c1ccc2c(c1)c1c3n2-c2cc(on2)C3CCC1 (configuration not stated)
Reply: > 100 µM

Task item: Given the molecule `COc1ccc(/C=C/c2cnc3ccccc3n2)cc1OC` , what is its reported TGI?
Reply: > 100 µM

Task item: // returns reported TGI for input Cc1c(N)nc(C(CC(N)=O)NCC(N)C(N)=O)nc1C(=O)NC(C(=O)NC(C)C(O)C(C)C(=O)NC(C(=O)NCCc1nc(-c2nc(C(=O)NCCCNCCCCN)cs2)cs1)C(C)O)C(OC1OC(CO)C(O)C(O)C1OC1OC(CO)C(O)C(OC(N)=O)C1O)c1cnc[nH]1 (configuration not stated)
Reply: > 10 µM

Task item: Name the reported TGI value associated with the molecule `CCOC(=O)C[n+]1ccc2c([nH]c3cc(OC)ccc32)c1C`
Reply: > 100 µM

Task item: TGI lookup needed for `Cc1cccc2c1C(=O)[C@@](C)([C@]1(C)Nc3cccc(C)c3C1=O)N2` , thanks.
Reply: > 100 µM

* * *

- System: SK-MEL-28 melanoma
- TEST METHOD NOTES: NCI tumour cell line growth inhibition, 48 h
PROPERTY: TGI

These recorded examples may help you get a feel for the data.
>>> recorded_result("CC(=O)[C@H]1CCC2[C@@H]3CC=C4C(O)C(OS(=O)(=O)O)CC[C@]4(C)C3CC[C@@]21C (stereo not given in full)")
"> 100 µM"
>>> recorded_result("C=C1CC(OC)(C(O)C(=O)N[C@H]2OCO[C@H]3C2O[C@H](C[C@H](O)COC)C(C)(C)C3OC)O[C@H](C)[C@@H]1C (stereo not given in full)")
"> 0.00772 µM"
>>> recorded_result("O=C1OC(c2ccccc2)=N/C1=C/N1CCCC1C(=O)O (stereo not given)")
"> 100 µM"
>>> recorded_result("CNC(C)Cc1ccc(O)cc1 (stereo not given)")
"> 100 µM"
>>> recorded_result("NC(=S)N/N=C\\c1nccc2c(C(F)(F)C(F)(F)C(F)(F)F)cccc12")
"3.26 µM"

Task item: Please look up its TGI: `CC(=O)Nc1ccc(/C=C(\NC(=O)c2ccccc2)C(=O)NNS(=O)(=O)c2ccc(C)cc2)cc1`
Reply: > 100 µM

Task item: Given the compound `CC(=O)NS(=O)(=O)c1ccc(-n2nc(-c3ccccc3)cc2C2=CC(=O)C=CC2=O)cc1` , what is its reported TGI?
Reply: > 100 µM

Task item: Look up TGI for this compound: `O=C(O)c1ccc2cccnc2c1O`
Reply: > 100 µM
